# TEST DETAILS: ATG_NRF2_ARE_CIS: Attagene CIS-FACTORIAL HepG2 Assay for human Nuclear Factor Erythroid 2 Related Factor 2 (NFR2) response to Antioxidant Response Elements (ARE) (AID 2282992)
# COND: HepG2 Attagene ARE/NRF2 reporter, transcription factor activity; actives raise or lower the signal
Activity calls are given as the source filed them. How the source made its calls: active means hit-call score of the fitted dose curve at least 0.9, where 1 is the maximum; inactive means score below 0.9.
Labels: yes (active), no (inactive)

QUERY SMILES	GROUP LABEL
COCN(COC)c1nc(N(COC)COC)nc(N(COC)COC)n1	no
O=C1Cc2ccccc2N1c1c(Cl)cccc1Cl	yes
CCCCCCc1ccc(N)cc1	yes
CCCCCc1ccc(O)cc1	yes
C=Cc1ccc(O)c(OC)c1	yes
CCO[Si](C)(C)OCC	no
O=C(Nc1cccc([N+](=O)[O-])c1)c1cc2ccccc2cc1O	yes
Brc1cc(Br)c(Oc2c(Br)cc(Br)c(Br)c2Br)cc1Br	no
OCC(CO)(CBr)CBr	no
CC(C)CCOCCC(C)C	no
FC(F)(F)C1(F)C(F)(F)C(F)(F)C(F)(F)C1(F)F	no
O=C1OC(=O)c2cc(-c3ccc4c(c3)C(=O)OC4=O)ccc21	no
Clc1ccc(Nc2nnc(Cc3ccncc3)c3ccccc23)cc1	yes
C=CC(=C)CC/C=C(\C)CCC=C(C)C	yes
CNNCc1ccc(C(=O)NC(C)C)cc1	no
OCCN1CN(CCO)CN(CCO)C1	yes
CCCCCCCC(OC)OC	no
Oc1ccc(Cc2ccccc2O)cc1	yes
Clc1ccc2c(Cl)ccnc2c1	yes
CCCCC=O	no
C=CC(=O)OCCC(F)(F)C(F)(F)C(F)(F)C(F)(F)C(F)(F)C(F)(F)C(F)(F)C(F)(F)F	yes
CCCCCCCCCCCC	no
COC1=CC(=O)C[C@@H](C)[C@]12Oc1c(Cl)c(OC)cc(OC)c1C2=O	no
CC(C)[C@@H]1CC[C@@H](C)C[C@H]1O	no
C[C@]12CC[C@@H]3c4ccc(O)cc4CC[C@H]3[C@@H]1C[C@@H](O)[C@@H]2O	no
CCCCc1ccc2ccccc2c1S(=O)(=O)O	yes
CC(=O)CC(C)C	no
O=P(O)(O)CCC(F)(F)C(F)(F)C(F)(F)C(F)(F)C(F)(F)C(F)(F)F	no

---

# Read-out: Thyroid Hormone Responsive (THRSP), THRSP (gene 7069)
# TEST DETAILS: LTEA_HepaRG_THRSP: Life Technologies and Expression Analysis (LTEA) Assay for Thyroid Hormone Responsive (THRSP) using HepaRG (AID 2283536)
# COND: mRNA level, 48 h; actives raise or lower the signal
The source made the active and inactive calls. The calls were made as follows: active = hit-call score of the fitted dose curve at least 0.9, where 1 is the maximum; inactive = score below 0.9.
Labels: active, inactive

COMPOUND	GROUP LABEL
CN(Cc1cnc2nc(N)nc(N)c2n1)c1ccc(C(=O)N[C@@H](CCC(=O)O)C(=O)O)cc1	active
CS(=O)(=O)c1ccc([C@@H](CC2CCCC2)C(=O)Nc2cnccn2)cc1Cl	active
Cc1[nH]nc2c1N=C(c1ccccc1Cl)c1cc([N+](=O)[O-])ccc1N2	active
O=C(CCCN1CCC(O)(c2ccc(Cl)cc2)CC1)c1ccc(F)cc1	inactive
CCCCC=O	inactive
CCCCc1oc2ccccc2c1C(=O)c1cc(I)c(OCCN(CC)CC)c(I)c1	active
CCC(C)c1ccccc1O (stereo not drawn)	inactive
O=C1NS(=O)(=O)c2ccccc21	inactive
